Where these numbers come from: patent EP4559908A1

# key: entry, value: inhibition at 0.05 µM
Molecular target: human ANO6 (variant 5) (Homo sapiens, UniProt Q4KMQ2)
Construct: expressed in transfected cells; host or cells: Fischer rat thyroid (FRT) cells
Sequence (Q4KMQ2 1-931 isoform Q4KMQ2-2): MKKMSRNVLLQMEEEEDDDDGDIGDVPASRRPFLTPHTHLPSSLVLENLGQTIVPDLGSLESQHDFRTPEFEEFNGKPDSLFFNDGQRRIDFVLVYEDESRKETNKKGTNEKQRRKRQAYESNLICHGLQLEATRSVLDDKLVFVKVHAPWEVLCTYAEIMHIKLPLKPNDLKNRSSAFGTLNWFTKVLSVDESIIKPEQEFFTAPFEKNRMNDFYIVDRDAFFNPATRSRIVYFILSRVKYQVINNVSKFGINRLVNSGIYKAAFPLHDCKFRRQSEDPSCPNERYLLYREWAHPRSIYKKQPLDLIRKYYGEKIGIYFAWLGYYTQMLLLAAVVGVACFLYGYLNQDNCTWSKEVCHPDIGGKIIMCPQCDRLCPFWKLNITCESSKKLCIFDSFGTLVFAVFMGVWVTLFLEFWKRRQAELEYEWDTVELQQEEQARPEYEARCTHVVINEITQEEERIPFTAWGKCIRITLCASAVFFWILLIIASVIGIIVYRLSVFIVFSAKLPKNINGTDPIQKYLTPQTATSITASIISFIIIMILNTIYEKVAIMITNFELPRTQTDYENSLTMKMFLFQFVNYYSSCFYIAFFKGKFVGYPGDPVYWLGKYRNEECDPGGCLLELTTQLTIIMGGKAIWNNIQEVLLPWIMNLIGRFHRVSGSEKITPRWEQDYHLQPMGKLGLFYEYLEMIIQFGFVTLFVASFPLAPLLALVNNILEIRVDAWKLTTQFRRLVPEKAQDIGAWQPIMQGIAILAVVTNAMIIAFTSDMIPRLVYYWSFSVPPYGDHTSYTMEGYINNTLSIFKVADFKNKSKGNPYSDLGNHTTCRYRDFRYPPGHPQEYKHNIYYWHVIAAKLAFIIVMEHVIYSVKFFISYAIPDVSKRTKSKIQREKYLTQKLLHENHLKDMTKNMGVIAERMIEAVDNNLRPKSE
Test: Lact C2 assay (measuring phosphatidylserine externalization scramblase function)
Assay type: cell-based
Conditions: FRT, compound 50 nM; FRT cells expressing human ANO6 (variant 5); ionomycin 10 µM; Lact-C2-GFP fluorescence; average of three tests; read-out: % Inhibition 50 nM

Please review the entries below; each comes with its answer.
Qu. Report value: inhibition at 0.05 µM, system: human ANO6 (variant 5) (Homo sapiens, UniProt Q4KMQ2), compound: `FC(F)(F)Oc1ccc2nc(-c3cccc(Nc4ccc(-c5ccncn5)cc4)c3)[nH]c2c1`
Ans. > 60%

Qu. Report value: inhibition at 0.05 µM, system: human ANO6 (variant 5) (Homo sapiens, UniProt Q4KMQ2), compound: `Fc1ccc2nc(-c3cccc(Nc4ccc(-c5ccncn5)cn4)c3)[nH]c2c1`
Ans. > 60%

Qu. Report value: inhibition at 0.05 µM, system: human ANO6 (variant 5) (Homo sapiens, UniProt Q4KMQ2), compound: `Cc1cc(-c2cccnn2)ccc1Nc1cccc(-c2nc3ccccc3[nH]2)c1`
Ans. 30 to 60%

Qu. Report value: inhibition at 0.05 µM, system: human ANO6 (variant 5) (Homo sapiens, UniProt Q4KMQ2), compound: `Fc1cc2[nH]c(-c3cccc(Nc4ccc(-c5ccccn5)cn4)c3)nc2cn1`
Ans. > 60%

Qu. Report value: inhibition at 0.05 µM, system: human ANO6 (variant 5) (Homo sapiens, UniProt Q4KMQ2), compound: `c1ccc(-c2ccc(Nc3cccc(-c4nc5ccccc5[nH]4)c3)cc2)nc1`
Ans. > 60%

New cases:
Qu. Report value: inhibition at 0.05 µM, system: human ANO6 (variant 5) (Homo sapiens, UniProt Q4KMQ2), compound: `CC(C)OC(=O)c1ccc2nc(-c3cccc(Nc4ccc(-c5cccnn5)cc4)c3)[nH]c2c1`
Ans. 30 to 60%

Qu. Report value: inhibition at 0.05 µM, system: human ANO6 (variant 5) (Homo sapiens, UniProt Q4KMQ2), compound: `FC(F)(F)c1ccc2nc(-c3cccc(Nc4ccc(-c5ccccn5)cc4)c3)[nH]c2c1`
Ans. > 60%

Qu. Report value: inhibition at 0.05 µM, system: human ANO6 (variant 5) (Homo sapiens, UniProt Q4KMQ2), compound: `Clc1cc2[nH]c(-c3cccc(Nc4ccc(-c5ccccn5)cn4)c3)nc2cn1`
Ans. 30 to 60%

Qu. Report value: inhibition at 0.05 µM, system: human ANO6 (variant 5) (Homo sapiens, UniProt Q4KMQ2), compound: `c1ccc(-c2cnc(Nc3cccc(-c4nc5ccccc5[nH]4)c3)nc2)nc1`
Ans. > 60%

Qu. Report value: inhibition at 0.05 µM, system: human ANO6 (variant 5) (Homo sapiens, UniProt Q4KMQ2), compound: `FC(F)(F)c1cc2[nH]c(-c3cccc(Nc4ncc(-c5ccccn5)cn4)c3)nc2cn1`
Ans. > 60%

Qu. Report value: inhibition at 0.05 µM, system: human ANO6 (variant 5) (Homo sapiens, UniProt Q4KMQ2), compound: `Clc1cc2[nH]c(-c3cccc(Nc4ccc(-c5ccccn5)cc4)c3)nc2cn1`
Ans. 30 to 60%

Qu. Report value: inhibition at 0.05 µM, system: human ANO6 (variant 5) (Homo sapiens, UniProt Q4KMQ2), compound: `FC(F)(F)c1ccc2nc(-c3ccnc(Nc4ccc(-c5cccnn5)cc4)c3)[nH]c2c1`
Ans. 30 to 60%
